Source listed as patent US8551965B2.

Tested on: human embryonic lung cells
EXPERIMENT SUMMARY: Cytotoxicity to human embryonic lung cells
Assay type: cell-based
ASSAY SETUP: minimum cytotoxic concentration to human embryonic lung cells
ASSAY ENDPOINT: MCC

Below are worked cases with known answers.
# COMPOUND, MCC
data = [
    ("CCCCCCOc1ccc(-c2cc3cn([C@H]4C[C@H](O)[C@@H](CO)O4)c(=O)nc3o2)cc1 [Example 18]", ">20 µM"),
    ("O=c1nc2oc(-c3ccc(Br)cc3)cc2cn1[C@H]1C[C@H](O)[C@@H](CO)O1 [Example 12]", ">2 µM"),
    ("Nc1nc2c(ncn2COCCO)c(=O)[nH]1 [Acyclovir, reference compound]", ">200 µM"),
    ("CCCCCCCCc1ccc(-c2cc3cn([C@H]4C[C@H](O)[C@@H](CO)O4)c(=O)nc3o2)cc1 [Example 6]", "≧20 μM"),
    ("CCCCCOc1ccc(-c2cc3cn([C@H]4C[C@H](O)[C@@H](CO)O4)c(=O)nc3o2)cc1 [Example 17]", ">50 µM"),
]

Data request, read-out MCC, for CCCCCCCCCCc1cc2cn([C@H]3C[C@H](O)[C@@H](CO)O3)c(=O)nc2o1 [Ex2 WO 98/49177, reference compound] >50 µM

Data request, read-out MCC, for O=c1nc2oc(-c3ccc(Cl)cc3)cc2cn1[C@H]1C[C@H](O)[C@@H](CO)O1 [Example 11] ≧20 μM

----------
Test system: varicella zoster virus (VZV) YS viral strain
EXPERIMENT SUMMARY: VZV plaque reduction in tissue culture, YS strain
Format: cell-based
ASSAY SETUP: Human alphaherpesvirus 3, 120 h; reduce viral plaque formation after 5 days by 50% compared to untreated control, YS viral strain; read-out: EC50 VZV YS
pEC50: −log10 of the molar value.
Label scheme for pEC50: lower than 8 is Criterion not met, 8 and above is Criterion met.

# COMPOUND, CLASS NAME
rows = [
    ("O=c1nc2oc(-c3ccc(Br)cc3)cc2cn1[C@H]1C[C@H](O)[C@@H](CO)O1", "Criterion not met"),
]

Please check the record Nc1nc2c(ncn2COCCO)c(=O)[nH]1 [Acyclovir, reference compound] and state if its pEC50 is at or above 8. Criterion not met

Please check the record COc1ccc(-c2cc3cn([C@H]4C[C@H](O)[C@@H](CO)O4)c(=O)nc3o2)cc1 and state if its pEC50 is at or above 8. Criterion not met

Please check the record CCCOc1ccc(-c2cc3cn([C@H]4C[C@H](O)[C@@H](CO)O4)c(=O)nc3o2)cc1 and state if its pEC50 is at or above 8. Criterion met

----------
System: human embryonic lung cells
EXPERIMENT SUMMARY: Cytotoxicity to human embryonic lung cells
Format: cell-based
ASSAY SETUP: minimum cytotoxic concentration to human embryonic lung cells
MCC overview
Respond numerically; units are µM and should not be typed.

Data request, read-out MCC, for COc1ccc(-c2cc3cn([C@H]4C[C@H](O)[C@@H](CO)O4)c(=O)nc3o2)cc1 [Example 14] 200

Data request, read-out MCC, for O=c1nc2oc(-c3ccc(F)cc3)cc2cn1[C@H]1C[C@H](O)[C@@H](CO)O1 [Example 10] 200

Data request, read-out MCC, for CCOc1ccc(-c2cc3cn([C@H]4C[C@H](O)[C@@H](CO)O4)c(=O)nc3o2)cc1 [Example 15] 200
